Value source: patent US12441762B2

Target: wild-type HCV NS3/4A protease (GT1a) (Hepatitis C virus genotype 1a, UniProt P27958, C1185S)
Construct: His-tag (cleaved yes); made in house; host or cells: Escherichia coli BL21(DE3), PET28a vector
Sequence (P27958 1027-1208 C1185S): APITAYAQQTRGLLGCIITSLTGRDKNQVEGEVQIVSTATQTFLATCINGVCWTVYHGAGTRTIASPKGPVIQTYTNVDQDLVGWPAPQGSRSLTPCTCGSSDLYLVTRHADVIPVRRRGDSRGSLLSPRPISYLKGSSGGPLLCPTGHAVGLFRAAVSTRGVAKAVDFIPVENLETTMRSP
Experiment: biochemical
Assay type: biochemical
Please respond with reported pKi for every item in the list.
Give bare numbers, as −log10 of the molar value.

See these solved cases before continuing.
Chem Smiles	pKi
COc1ccc2nc(C(F)(F)F)c(O[C@@H]3C[C@H]4C(=O)N[C@]5(C(=O)NS(=O)(=O)C6(C)CC6)C[C@H]5/C=C\CCCCC[C@H](NC(=O)OC5(C)CCCC5)C(=O)N4C3)nc2c1	9.05
COc1ccc2nc(C)c(O[C@@H]3C[C@H]4C(=O)N[C@]5(C(=O)NS(=O)(=O)C6(C)CC6)C[C@H]5/C=C\CCCCC[C@H](NC(=O)OC5CC(F)(F)C5)C(=O)N4C3)nc2c1	9.21

Let's switch to this molecule now.
Input `COc1ccc2nc(C)c(O[C@@H]3C[C@H]4C(=O)N[C@]5(C(=O)NS(=O)(=O)C6(C)CC6)C[C@H]5/C=C\CCCCC[C@H](NC(=O)OC5(C)CCCC5)C(=O)N4C3)nc2c1` , output reported pKi.
8.75

====

Tested on: HCV NS3/4A protease D168A variant
Test: biochemical
Format: biochemical, Hepatitis C virus
Settings: Table S1, value in parentheses
Experimental Endpoint: Fold Change of D168A Ki with respect to GT1a wild-type

Please review the entries below; each comes with its answer.
Molecule	Measurement Target	Reported Result
COC(=O)N[C@H](C(=O)N[C@H]1CCCCC/C=C\[C@@H]2C[C@@]2(C(=O)NS(=O)(=O)C2(C)CC2)NC(=O)[C@@H]2C[C@@H](Oc3nc4cc(OC)ccc4nc3C)CN2C1=O)C1CCCC1 [Inhibitor P4P5-3B]	HCV NS3/4A protease D168A variant	(9) fold
COc1ccc2nc(C)c(O[C@@H]3C[C@H]4C(=O)N[C@]5(C(=O)NS(=O)(=O)C6(C)CC6)C[C@H]5/C=C\CCCCC[C@H](NC(=O)OC5(C)CCCC5)C(=O)N4C3)nc2c1 [AJ-74]	HCV NS3/4A protease D168A variant	(9) fold
COC(=O)N[C@H](C(=O)N[C@H]1CCCCC/C=C\[C@@H]2C[C@@]2(C(=O)NS(=O)(=O)C2(C)CC2)NC(=O)[C@@H]2C[C@@H](Oc3nc4cc(OC)ccc4nc3C)CN2C1=O)C(C)C [Inhibitor P4P5-1B]	HCV NS3/4A protease D168A variant	(8) fold
COc1ccc2nc(C)c(O[C@@H]3C[C@H]4C(=O)N[C@]5(C(=O)NS(=O)(=O)C6(C)CC6)C[C@H]5/C=C\CCCCC[C@H](NC(=O)OC(C)(C)C)C(=O)N4C3)nc2c1 [JZ01-15]	HCV NS3/4A protease D168A variant	(14) fold

Hey, can you go through the list below and give me Fold Change of D168A Ki with respect to GT1a wild-type for every item?
1. COc1ccc2nc(C)c(O[C@@H]3C[C@H]4C(=O)N[C@]5(C(=O)NS(=O)(=O)C6(C)CC6)C[C@H]5/C=C\CCCCC[C@H](NC(=O)[C@@H](NC(C)=O)C(C)(C)C)C(=O)N4C3)nc2c1 [Inhibitor P4P5-2A]
2. COC(=O)N[C@H](C(=O)N[C@H]1CCCCC/C=C\[C@@H]2C[C@@]2(C(=O)NS(=O)(=O)C2(C)CC2)NC(=O)[C@@H]2C[C@@H](Oc3nc4cc(OC)ccc4nc3C)CN2C1=O)C(C)(C)C [Inhibitor P4P5-2B]
3. COC(=O)N[C@H](C(=O)N[C@H]1CCCCC/C=C\[C@@H]2C[C@@]2(C(=O)NS(=O)(=O)C2(C)CC2)NC(=O)[C@@H]2C[C@@H](Oc3nc4cc(OC)ccc4nc3C)CN2C1=O)C1CCCCC1 [Inhibitor P4P5-6]
4. COc1ccc2nc(C)c(O[C@@H]3C[C@H]4C(=O)N[C@]5(C(=O)NS(=O)(=O)C6(C)CC6)C[C@H]5/C=C\CCCCC[C@H](NC(=O)OC5CCCCC5)C(=O)N4C3)nc2c1 [NR03-67]
5. CC[C@H](C)[C@H](NC(C)=O)C(=O)N[C@H]1CCCCC/C=C\[C@@H]2C[C@@]2(C(=O)NS(=O)(=O)C2(C)CC2)NC(=O)[C@@H]2C[C@@H](Oc3nc4cc(OC)ccc4nc3C)CN2C1=O [Inhibitor P4P5-4]

1. (9) fold
2. (8) fold
3. (11) fold
4. (14) fold
5. (11) fold

====

Biological target: wild-type HCV NS3/4A protease (GT1a) (Hepatitis C virus genotype 1a, UniProt P27958, C1185S)
Construct: His-tag (cleaved yes); made in house; host or cells: Escherichia coli BL21(DE3), PET28a vector
Assay: biochemical
Format: biochemical
Details: Table S1; Morrison equation fit; read-out: Ki GT1a WT
Experimental Endpoint: pKi
Numbers only, as −log10 of the molar value.

Return the recorded pKi value; entry: `COc1ccc2nc(C)c(O[C@@H]3C[C@H]4C(=O)N[C@]5(C(=O)NS(=O)(=O)C6(C)CC6)C[C@H]5/C=C\CCCCC[C@H](NC(=O)OC5(C)CCCC5)C(=O)N4C3)nc2c1`
8.95

====

Biological target: HCV NS3/4A protease D168A variant (Hepatitis C virus genotype 1a, UniProt P27958, C1185S/D1194A)
Construct: His-tag (cleaved yes); made in house; host or cells: Escherichia coli BL21(DE3), PET28a vector
Sequence (P27958 1027-1208 C1185S/D1194A): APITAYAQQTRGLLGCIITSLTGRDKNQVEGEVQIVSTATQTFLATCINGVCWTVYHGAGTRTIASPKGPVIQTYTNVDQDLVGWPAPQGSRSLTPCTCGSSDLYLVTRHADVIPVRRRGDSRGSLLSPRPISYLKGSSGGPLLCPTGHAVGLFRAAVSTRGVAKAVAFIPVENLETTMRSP
Experiment: biochemical
Type: biochemical
Experimental Endpoint: pKi
Give bare numbers, as −log10 of the molar value.

Some solved cases for reference:
Molecule	pKi
COc1ccc2nc(C)c(O[C@@H]3C[C@H]4C(=O)N[C@]5(C(=O)NS(=O)(=O)C6(C)CC6)C[C@H]5/C=C\CCCCC[C@H](NC(=O)OCC5(C(F)(F)F)CC5)C(=O)N4C3)nc2c1	7.56
COc1ccc2nc(C)c(O[C@@H]3C[C@H]4C(=O)N[C@]5(C(=O)NS(=O)(=O)C6(C)CC6)C[C@H]5/C=C\CCCCC[C@H](NC(=O)OC5(C)CCC5)C(=O)N4C3)nc2c1	7.33
CC[C@H](C)[C@H](NC(C)=O)C(=O)N[C@H]1CCCCC/C=C\[C@@H]2C[C@@]2(C(=O)NS(=O)(=O)C2(C)CC2)NC(=O)[C@@H]2C[C@@H](Oc3nc4cc(OC)ccc4nc3C)CN2C1=O	7.09
COc1ccc2nc(C(F)(F)F)c(O[C@@H]3C[C@H]4C(=O)N[C@]5(C(=O)NS(=O)(=O)C6(C)CC6)C[C@H]5/C=C\CCCCC[C@H](NC(=O)O[C@@H](C)C(C)C)C(=O)N4C3)nc2c1	7.58
COc1ccc2nc(C(F)(F)F)c(O[C@@H]3C[C@H]4C(=O)N[C@]5(C(=O)NS(=O)(=O)C6(C)CC6)C[C@H]5/C=C\CCCCC[C@H](NC(=O)O[C@H](C)C5CC5)C(=O)N4C3)nc2c1	7.58
COc1ccc2nc(C(F)(F)F)c(O[C@@H]3C[C@H]4C(=O)N[C@]5(C(=O)NS(=O)(=O)C6(C)CC6)C[C@H]5/C=C\CCCCC[C@H](NC(=O)OC5(C(F)(F)F)CCC5)C(=O)N4C3)nc2c1	7.91
CCC1(OC(=O)N[C@H]2CCCCC/C=C\[C@@H]3C[C@@]3(C(=O)NS(=O)(=O)C3(C)CC3)NC(=O)[C@@H]3C[C@@H](Oc4nc5cc(OC)ccc5nc4C)CN3C2=O)CCCC1	7.66
COc1ccc2nc(C)c(O[C@@H]3C[C@H]4C(=O)N[C@]5(C(=O)NS(=O)(=O)C6(C)CC6)C[C@H]5/C=C\CCCCC[C@H](NC(=O)OC5(C(F)(F)F)CCC5)C(=O)N4C3)nc2c1	7.95
COc1ccc2nc(C(F)(F)F)c(O[C@@H]3C[C@H]4C(=O)N[C@]5(C(=O)NS(=O)(=O)C6(C)CC6)C[C@H]5/C=C\CCCCC[C@H](NC(=O)OCC(C)C)C(=O)N4C3)nc2c1	7.83
COc1ccc2nc(C(F)(F)F)c(O[C@@H]3C[C@H]4C(=O)N[C@]5(C(=O)NS(=O)(=O)C6(C)CC6)C[C@H]5/C=C\CCCCC[C@H](NC(=O)OCC5(C)CC5(F)F)C(=O)N4C3)nc2c1 (stereo partly shown)	8.15

Dear colleague, could you send me pKi for each of the items below? Thanks.
1. COc1ccc2nc(C)c(O[C@@H]3C[C@H]4C(=O)N[C@]5(C(=O)NS(=O)(=O)C6(C)CC6)C[C@H]5/C=C\CCCCC[C@H](NC(=O)OC5(C)CCCC5)C(=O)N4C3)nc2c1
2. COc1ccc2nc(C(F)(F)F)c(O[C@@H]3C[C@H]4C(=O)N[C@]5(C(=O)NS(=O)(=O)C6(C)CC6)C[C@H]5/C=C\CCCCC[C@H](NC(=O)OC5(C(F)(F)F)CCCC5)C(=O)N4C3)nc2c1
3. COc1ccc2nc(C)c(O[C@@H]3C[C@H]4C(=O)N[C@]5(C(=O)NS(=O)(=O)C6(C)CC6)C[C@H]5/C=C\CCCCC[C@H](NC(=O)OC(C)(C)C)C(=O)N4C3)nc2c1

[7.80, 7.69, 7.28]

// each listed molecule needs a value for pKi
1. COc1ccc2nc(C(F)(F)F)c(O[C@@H]3C[C@H]4C(=O)N[C@]5(C(=O)NS(=O)(=O)C6(C)CC6)C[C@H]5/C=C\CCCCC[C@H](NC(=O)OCC(C)(C)C)C(=O)N4C3)nc2c1
2. COc1ccc2nc(C)c(O[C@@H]3C[C@H]4C(=O)N[C@]5(C(=O)NS(=O)(=O)C6(C)CC6)C[C@H]5/C=C\CCCCC[C@H](NC(=O)O[C@H](C)C(C)C)C(=O)N4C3)nc2c1
3. COc1ccc2nc(C)c(O[C@@H]3C[C@H]4C(=O)N[C@]5(C(=O)NS(=O)(=O)C6(C)CC6)C[C@H]5/C=C\CCCCC[C@H](NC(=O)OC5CCCCC5)C(=O)N4C3)nc2c1
4. COc1ccc2nc(C)c(O[C@@H]3C[C@H]4C(=O)N[C@]5(C(=O)NS(=O)(=O)C6(C)CC6)C[C@H]5/C=C\CCCCC[C@H](NC(=O)OCC5(C)CC5)C(=O)N4C3)nc2c1
5. COc1ccc2nc(C(F)(F)F)c(O[C@@H]3C[C@H]4C(=O)N[C@]5(C(=O)NS(=O)(=O)C6(C)CC6)C[C@H]5/C=C\CCCCC[C@H](NC(=O)OC5CC5)C(=O)N4C3)nc2c1
6. COc1ccc2nc(C(F)(F)F)c(O[C@@H]3C[C@H]4C(=O)N[C@]5(C(=O)NS(=O)(=O)C6(C)CC6)C[C@H]5/C=C\CCCCC[C@H](NC(=O)O[C@@H](C)C(F)(F)F)C(=O)N4C3)nc2c1

1. 7.89
2. 7.62
3. 7.90
4. 7.67
5. 7.17
6. 7.35
